Each recorded value in this set is attributed to PubChem BioAssay AID871.

experiment: enhancers of STAT3 transcriptional signaling – U3A cells, luciferase, luminescence, MLSCN library, primary screen (AID 871); conditions: IL-6 STAT3-luciferase reporter, at 5.6 µM, stronger effect = higher value, 100% = signal with IL-6 EC80 alone;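 note: 0% = background luminescence of wells with medium and substrate only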
About 1,800 (0.95%) of roughly 190,000 compounds were called active. Many of the other results were omitted from the sample, so actives are more common in it than they were.
OBSERVABLE: activation (% of control) (%)
I only need the number, in %, no unit after it.

smiles_notation=Cc1cc2oc(=O)cc(CN3CCN(S(=O)(=O)c4cccs4)CC3)c2cc1C(C)C result_number=98.7
smiles_notation=CSc1ncccc1C(=O)Nc1nc2ccc(F)cc2s1 result_number=90.7
smiles_notation=Fc1ccc2nc(Nc3nc4c(s3)CCCC4)sc2c1 result_number=147
smiles_notation=C=Cn1c(C(=O)O)ccc1-c1ccc(OC)cc1 result_number=103
smiles_notation=Cc1nn(Cc2ccc(Cl)c(Cl)c2)c(C)c1NC(=O)c1cc(C2CC2)on1 result_number=92.8

Turning to the following compound.
## Input Using known records, supply activation (% of control) for O=C(CNCc1ccco1)Nc1cc(S(=O)(=O)N2CCOCC2)ccc1N1CCCC1
## Output 114

====

Reported activation (% of control) values for a set of compounds
assay: enhancers of STAT3 transcriptional signaling – U3A cells, luciferase, luminescence, MLSCN library, primary screen (AID 871); details: IL-6 STAT3-luciferase reporter, at 5.6 µM, stronger effect = higher value, 100% = signal with IL-6 EC80 alone;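 note: 0% = background luminescence of wells with medium and substrate only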
Screen size: about 190,000 compounds; about 1,800 (0.95%) were called active. This excerpt belongs to a sample that is enriched for actives.
Just the number in %, nothing appended.

compound=C#CCCCc1nc2ccccc2c(=O)n1N observable="activation (% of control)" result_number=96.4
compound="CC1=NNC(=O)C1CCC(=O)N/N=C\\c1ccc(Cl)c(Cl)c1 (stereo unspecified)" observable="activation (% of control)" result_number=108
compound=CN(C)c1ccc(C=C2C(=O)OC3(CCCC3)OC2=O)cc1 observable="activation (% of control)" result_number=103
compound=Cc1noc(/C=C/c2ccco2)c1S(=O)(=O)N1CCC(C(=O)N2CCc3ccccc32)CC1 observable="activation (% of control)" result_number=104
compound=CCN=c1sc(C(=O)Nc2ccccc2)c(C)n1CC observable="activation (% of control)" result_number=84.4

Attention now shifts to the item below.
## Input Assign activation (% of control) to the following record: CCS(=O)(=O)N1CCC(C(=O)N2CCN(c3ccccc3)CC2)CC1
## Output 103

====

Listing: activation (% of control) of selected compounds
experiment: enhancers of STAT3 transcriptional signaling – U3A cells, luciferase, luminescence, MLSCN library, primary screen (AID 871); settings: IL-6 STAT3-luciferase reporter, at 5.6 µM, stronger effect = higher value, 100% = signal with IL-6 EC80 alone;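 note: 0% = background luminescence of wells with medium and substrate only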
The campaign covered roughly 190,000 compounds. About 1,800 (0.95%) were called active. This is one part of a sample in which actives are shown more often than they occur.
// units = %; emit number, no label

smiles_notation=C=C(C)Cn1c(SCC(=O)NCc2ccco2)nc2sc3c(c2c1=O)CCC3 result_number=104
smiles_notation=Cc1scc(C(=O)NNC(=S)NCC(C)C)c1C result_number=97.6
smiles_notation=COc1ccc(/C=C(\NC(=O)c2ccc(OCC(C)C)cc2)C(=O)OCc2ccco2)cc1 result_number=111
smiles_notation=Cc1c(C(=O)CN2CCOCC2)[nH]c2ccccc12 result_number=121

## Input Give the reported activation (% of control) for this compound. COc1ccc2nc(/N=C(\N)NC(=O)Nc3ccccc3)nc(C)c2c1
## Output 100

## Input Give the measured activation (% of control) for COc1ccc(CCn2c(=N)c(C(=O)NCc3ccco3)cc3c(=O)n4cccc(C)c4nc32)cc1
## Output 94.5

## Input Specify reported activation (% of control) for the compound shown: Cc1ccc(O)c(CNc2nc3ccccc3n2C)c1
## Output 102

## Input State its activation (% of control): CCCC(=O)Nc1c(O)c2ccccc2[nH]c1=O
## Output 101

## Input Supply recorded activation (% of control) for Cc1c(C(=O)Nc2cccc(Cl)c2)cn2c(nc3ccccc32)c1C#N here.
## Output 94.7

## Input Output activation (% of control) of Cc1cccc2c(=O)n3c(nc12)CCCCC3
## Output 102

## Input Give activation (% of control) for the following compound: Cc1nc(N=C(N)N)nc2c(C)cccc12
## Output 168

====

assay: enhancers of STAT3 transcriptional signaling – U3A cells, luciferase, luminescence, MLSCN library, primary screen (AID 871); conditions: IL-6 STAT3-luciferase reporter, at 5.6 µM, 100% = signal with IL-6 EC80 alone;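 note: 0% = background luminescence of wells with medium and substrate only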
The campaign covered roughly 190,000 compounds. About 1,800 (0.95%) were called active.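 The calls were made as follows: active = activation above the screen-wide mean of compound activation plus 3 SD (cut at about 130% in these data); inactive = the rest.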 Many of the other results were omitted from the sample, so actives are more common in it than they were.
Reply using exactly one outcome from active, inactive

smiles_notation=COc1ccc(-n2c(=S)[nH]c3sc4c(c3c2=O)CCc2ccccc2-4)cc1 group_label=inactive
smiles_notation=COc1cccc(C(=O)Nc2ccc(N3CCCC3)cc2)c1 group_label=inactive
smiles_notation=COc1cccc(/C=C(/CC(=O)Nc2ccc(N3CCOCC3)cc2)c2nc3ccccc3s2)c1 group_label=active

## Input Outcome? COC(=O)c1[nH]c2ccccc2c1NS(=O)(=O)c1ccc(OC)cc1OC
## Output active

## Input Please indicate how the test categorized CSc1nc2sc3c(c2c(=O)[nH]1)CCc1ccccc1-3 .
## Output active

## Input Look up the recorded call for COc1ccc(OC)c(S(=O)(=O)Nc2ccccc2F)c1 in this test.
## Output inactive

====

assay: enhancers of STAT3 transcriptional signaling – U3A cells, luciferase, luminescence, MLSCN library, primary screen (AID 871); conditions: IL-6 STAT3-luciferase reporter, at 5.6 µM, 100% = signal with IL-6 EC80 alone;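 note: 0% = background luminescence of wells with medium and substrate only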
Among all 190,000 compounds or so, about 1,800 (0.95%) were called active.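 The calls were made as follows: active = activation above the screen-wide mean of compound activation plus 3 SD (cut at about 130% in these data); inactive = the rest.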 The sample as a whole holds a higher share of actives than the screen did.
# valid calls are YES for active, NO for inactive; nothing else

molecule="O=C(CN1C(=O)CC(c2ccccc2)S(=O)(=O)c2ccccc21)NC1CCCC1 (stereo unspecified)" group_label=NO

## Input I would be grateful if you could indicate the recorded call for CSCCC(NC(=O)c1ccco1)C(=O)OCC(=O)Nc1ncc(Cl)c(C)c1Cl (stereo unspecified) .
## Output YES

## Input Test call for this molecule, please: COc1ccccc1-c1nnc(NC(=O)c2cccc(N3C(=O)CCC3=O)c2)o1
## Output NO

## Input In this assay, the call recorded for COc1cccc(NC(=O)C(Sc2nnnn2C)c2ccccc2)c1 (stereo unspecified) was what?
## Output NO

====

assay: enhancers of STAT3 transcriptional signaling – U3A cells, luciferase, luminescence, MLSCN library, primary screen (AID 871); conditions: IL-6 STAT3-luciferase reporter, at 5.6 µM, stronger effect = higher value, 100% = signal with IL-6 EC80 alone;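 note: 0% = background luminescence of wells with medium and substrate only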
The campaign covered roughly 190,000 compounds. About 1,800 (0.95%) were called active. Shown is part of a subset that was picked to be rich in actives.
Measured activation (% of control), listed per entry.

compound="CCN(CC)P(=O)(Nc1ccc(SC(F)F)cc1)c1ccc(N(C)C)cc1NC(=O)c1ccco1 (stereo not given)" result="131% (inactive)"

## Input Quickly give me recorded activation (% of control) for O=C(CCC(=O)NNc1nc2ccccc2c2nc(-c3ccccc3)nn12)NCCCN1CCCC1=O
## Output 112% (inactive)

## Input Consider the compound COC(=O)c1[nH]c2cccc(C)c2c1NC(=O)CN1CCCc2ccccc21 . State its measured activation (% of control).
## Output 140% (active)

====

Overview of reported activation (% of control) across a group of compounds:
assay: enhancers of STAT3 transcriptional signaling – U3A cells, luciferase, luminescence, MLSCN library, primary screen (AID 871); conditions: IL-6 STAT3-luciferase reporter, at 5.6 µM, stronger effect = higher value, 100% = signal with IL-6 EC80 alone;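 note: 0% = background luminescence of wells with medium and substrate only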
About 1,800 (0.95%) of roughly 190,000 compounds were called active. The sample holds actives, similar compounds and a random draw of the others, so the mix is not that of the screen.
Give a bare numeral; the unit % is implied.

## Input Tell me its activation (% of control) given Cc1nc(NC(=O)c2cccc(Cl)c2)sc1-c1csc(Nc2cccc(Cl)c2)n1 as the entry.
## Output 117

## Input Entry O=C(C1CCN(C2CCN(Cc3cccc4c3OCO4)CC2)CC1)N1CCOCC1 needs its activation (% of control) filled in; supply it.
## Output 108

## Input Give the measured activation (% of control) for CN(C)S(=O)(=O)c1cccc(NC(=S)NCc2ccc3c(c2)OCO3)c1
## Output 95.2

## Input Find the measured activation (% of control) of Cc1nc(NC(=O)CN(C)S(=O)(=O)c2ccc(Cl)cc2)sc1C and report it.
## Output 106

## Input Give the measured activation (% of control) for CCCCCCC(=O)Nc1nc(C)c(-c2csc(Nc3cc(Cl)ccc3OC)n2)s1
## Output 105

## Input Note down activation (% of control) recorded for COc1ccc(-c2csc(NC(=O)COC(=O)Cc3ccc(Cl)cc3Cl)n2)cc1
## Output 100

## Input Annotate the compound CCCCC(=O)Nc1nc(C)c(-c2csc(Nc3ccc(Cl)cc3)n2)s1 with its measured activation (% of control).
## Output 149

## Input Answer with the recorded activation (% of control) for the compound listed here: C=CCCC(=O)Nc1nc(C)c(-c2csc(Nc3ccc(Cl)cc3)n2)s1
## Output 159

## Input Indicate the recorded activation (% of control) value for this compound: Cc1cc(Cl)ccc1NC(=S)NCCCN1CCCC1=O
## Output 98.6

## Input Item CCCCCCC(=O)Nc1nc(C)c(-c2csc(Nc3cccc(OC)c3)n2)s1 : provide activation (% of control)
## Output 99.6

## Input Quickly give me recorded activation (% of control) for Cc1cc(C(=O)NNC(=S)Nc2ccccc2C)cs1
## Output 100
